// reported residual activity per item
Biological target: cGMP-dependent protein kinase 1 (Homo sapiens)
Settings: at 1 µM
Answer with a number only, understood to be in %.

For orientation, consider the following solved cases.
INSERT INTO results (structure_smiles, experimental_target, quantity_measured, observed) VALUES
  ('Oc1ccc(-c2nc(-c3ccc(F)cc3)c(-c3ccncc3)[nH]2)cc1', 'cGMP-dependent protein kinase 1 (Homo sapiens)', 'residual activity', 108),
  ('Cn1nc2c3c(cccc31)C(=O)c1ccccc1-2', 'cGMP-dependent protein kinase 1 (Homo sapiens)', 'residual activity', 100),
  ('COc1ccc(S(=O)(=O)N(CCO)c2ccccc2CN(C)C/C=C/c2ccc(Cl)cc2)cc1', 'cGMP-dependent protein kinase 1 (Homo sapiens)', 'residual activity', 103);

// moving on: another record for residual activity
Query: Hello, I am looking for reported residual activity with cGMP-dependent protein kinase 1 (Homo sapiens) for "Oc1c2ccccc2c2c3c(cccc13)N=N2" . Could you help?
Response: 90

###

// reported residual activity per item
Target: MAP kinase-activated protein kinase 5 (Homo sapiens)
Sequence (whole entry): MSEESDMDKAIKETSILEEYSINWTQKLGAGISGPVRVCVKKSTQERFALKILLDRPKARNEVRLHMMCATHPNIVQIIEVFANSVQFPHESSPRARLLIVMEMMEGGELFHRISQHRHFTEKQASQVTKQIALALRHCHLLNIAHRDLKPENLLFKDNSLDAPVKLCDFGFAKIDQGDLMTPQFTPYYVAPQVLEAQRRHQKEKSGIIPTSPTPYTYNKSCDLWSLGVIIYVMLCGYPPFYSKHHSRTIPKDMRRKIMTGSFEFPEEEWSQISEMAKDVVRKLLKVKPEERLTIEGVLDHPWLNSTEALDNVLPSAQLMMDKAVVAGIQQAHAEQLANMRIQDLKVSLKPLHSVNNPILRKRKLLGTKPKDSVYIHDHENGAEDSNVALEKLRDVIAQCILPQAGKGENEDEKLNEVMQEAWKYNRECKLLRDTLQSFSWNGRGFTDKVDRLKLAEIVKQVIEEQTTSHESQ
Details: at 10 µM
Answer with a number only, understood to be in %.

INSERT INTO assay_data (structure_smiles, units_symbol, observed) VALUES
  ('COc1ccc(OC)c2c(=S)c3ccccc3[nH]c12', '%', 90),
  ('CC(C)n1cnc2/c(=N/c3cccc(Cl)c3)nc(NCCO)[nH]c21', '%', 88),
  ('O=C1Nc2cc(Br)ccc2/C1=C1/Nc2ccccc2/C1=N\O', '%', 90);

// moving on: another record for residual activity
Query: Entry "c1ccc(-c2n[nH]cc2-c2ccnc3ccccc23)nc1" : reported residual activity = ?
Response: 90

###

Target: Ribosomal protein S6 kinase alpha-2 (Homo sapiens) (UniProt Q15349)
Sequence (Q15349 whole entry): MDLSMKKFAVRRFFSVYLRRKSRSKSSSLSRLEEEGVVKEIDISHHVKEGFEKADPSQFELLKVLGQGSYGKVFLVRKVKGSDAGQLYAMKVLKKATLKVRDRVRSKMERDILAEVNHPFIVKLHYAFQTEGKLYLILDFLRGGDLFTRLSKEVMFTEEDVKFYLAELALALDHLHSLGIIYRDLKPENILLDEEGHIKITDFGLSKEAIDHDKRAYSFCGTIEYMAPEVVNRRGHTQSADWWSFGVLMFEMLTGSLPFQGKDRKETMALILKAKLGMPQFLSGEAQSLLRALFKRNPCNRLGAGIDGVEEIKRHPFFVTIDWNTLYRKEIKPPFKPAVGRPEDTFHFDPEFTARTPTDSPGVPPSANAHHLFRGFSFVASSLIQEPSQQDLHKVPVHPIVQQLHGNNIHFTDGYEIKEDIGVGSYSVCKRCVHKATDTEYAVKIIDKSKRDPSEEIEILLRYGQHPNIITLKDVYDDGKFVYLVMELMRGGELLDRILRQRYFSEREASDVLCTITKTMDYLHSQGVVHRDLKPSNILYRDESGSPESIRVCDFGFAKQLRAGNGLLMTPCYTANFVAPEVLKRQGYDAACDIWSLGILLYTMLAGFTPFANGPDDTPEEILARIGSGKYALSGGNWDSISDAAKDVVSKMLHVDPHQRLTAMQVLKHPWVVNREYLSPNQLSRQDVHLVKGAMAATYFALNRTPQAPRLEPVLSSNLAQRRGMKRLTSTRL
Conditions: at 1 µM
QUANTITY MEASURED: residual activity (%)
Answer with a number only, understood to be in %.

INSERT INTO measurements (structure_smiles, quantity_measured, observed) VALUES
  ('O=C(O)c1ccc2c3c1cccc3c(=O)n1c3ccccc3nc21', 'residual activity', 90);

Query: Entry "COc1cc2ncc(-c3ccccc3)nc2cc1OC" : reported residual activity = ?
Response: 100

Query: Entry "COc1cccc(-c2cc(=O)c3ccccc3o2)c1N" : reported residual activity = ?
Response: 102

Query: Entry "Cn1nc2c3c(cccc31)C(=O)c1ccccc1-2" : reported residual activity = ?
Response: 90

Query: Entry "c1ccc(-c2n[nH]c3c2oc2ccccc23)cc1" : reported residual activity = ?
Response: 92

Query: Entry "CC(=O)c1ccc(N2CCOCC2)cc1O" : reported residual activity = ?
Response: 105

Query: Entry "CC(C)n1cnc2c(NCc3ccccc3)nc(NCCCO)nc21" : reported residual activity = ?
Response: 101

Query: Entry "CO[C@H]1C[C@@H]2CC[C@@H](C)[C@@](O)(O2)C(=O)C(=O)N2CCCC[C@H]2C(=O)O[C@H]([C@H](C)C[C@@H]2CC[C@@H](O)[C@H](OC)C2)CC(=O)[C@H](C)/C=C(\C)[C@@H](O)[C@@H](OC)C(=O)[C@H](C)C[C@H](C)/C=C/C=C/C=C/1C" : reported residual activity = ?
Response: 102

Query: Entry "CC#CC(=O)Nc1cc2c(Nc3ccc(F)c(Cl)c3)ncnc2cn1" : reported residual activity = ?
Response: 99

Query: Entry "CC[n+]1c(/C=C/N(C)c2ccccc2)n(-c2ccccc2)c2ccc(-c3nc4ccccc4s3)cc21" : reported residual activity = ?
Response: 117

Query: Entry "O=C1NC(=O)/C(=C\c2ccc3nccnc3c2)S1" : reported residual activity = ?
Response: 114

Query: Entry "Cc1ccc(S(=O)(=O)/C=C/C#N)cc1" : reported residual activity = ?
Response: 102

Query: Entry "CCN(CC)CCCCN1c2ccccc2Oc2ccc(Cl)cc21" : reported residual activity = ?
Response: 109

Query: Entry "CNc1cc2c(Nc3cccc(Br)c3)ncnc2cn1" : reported residual activity = ?
Response: 87

Query: Entry "CC(C)n1cnc2/c(=N/c3cccc(Cl)c3)nc(NCCO)[nH]c21" : reported residual activity = ?
Response: 6

###

// reported residual activity per item
Molecular target: Tyrosine-protein kinase Fer (Homo sapiens) (UniProt P16591)
Sequence (P16591 whole entry, looked up): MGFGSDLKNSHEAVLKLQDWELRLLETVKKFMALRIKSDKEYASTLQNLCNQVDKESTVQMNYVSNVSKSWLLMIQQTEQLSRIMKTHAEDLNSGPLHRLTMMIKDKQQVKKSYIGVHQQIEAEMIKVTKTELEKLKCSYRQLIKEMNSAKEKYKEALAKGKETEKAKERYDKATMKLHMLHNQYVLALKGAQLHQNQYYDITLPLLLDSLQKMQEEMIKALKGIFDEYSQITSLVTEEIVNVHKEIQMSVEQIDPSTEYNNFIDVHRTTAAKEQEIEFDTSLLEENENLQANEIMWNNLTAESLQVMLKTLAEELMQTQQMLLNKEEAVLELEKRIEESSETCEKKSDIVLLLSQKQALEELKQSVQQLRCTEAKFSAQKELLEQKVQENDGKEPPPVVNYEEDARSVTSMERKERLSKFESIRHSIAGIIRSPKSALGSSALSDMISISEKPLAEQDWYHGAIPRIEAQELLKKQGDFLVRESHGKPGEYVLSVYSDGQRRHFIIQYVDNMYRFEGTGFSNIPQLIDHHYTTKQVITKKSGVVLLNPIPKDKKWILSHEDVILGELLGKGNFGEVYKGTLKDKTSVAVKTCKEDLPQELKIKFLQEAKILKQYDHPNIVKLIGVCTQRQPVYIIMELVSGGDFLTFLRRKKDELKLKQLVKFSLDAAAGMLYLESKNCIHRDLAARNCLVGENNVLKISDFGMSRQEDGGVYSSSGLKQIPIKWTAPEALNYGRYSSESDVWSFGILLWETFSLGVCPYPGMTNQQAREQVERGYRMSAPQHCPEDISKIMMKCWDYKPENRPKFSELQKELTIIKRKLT
Conditions: at 10 µM
Answer with a number only, understood to be in %.

For orientation, consider the following solved cases.
INSERT INTO measurements (structure_smiles, quantity_measured, observed) VALUES
  ('CN(C)c1ccc(/C=C2\C(=O)Nc3ccccc32)cc1', 'residual activity', 82),
  ('COc1cccc(-c2cc(=O)c3ccccc3o2)c1N', 'residual activity', 101),
  ('O=C1NC(=O)c2c1c1c3ccccc3[nH]c1c1[nH]c3cc(Br)ccc3c21', 'residual activity', 86),
  ('O=C1NC(=O)c2cc(Nc3ccc(F)cc3)c(Nc3ccc(F)cc3)cc21', 'residual activity', 86),
  ('CC(=O)O/N=C1\C(=C2\C(=O)Nc3cc(Br)ccc32)Nc2ccccc21', 'residual activity', 92);

// moving on: another record for residual activity
Query: Entry "COc1ccc(OC)c2c(=S)c3ccccc3[nH]c12" : reported residual activity = ?
Response: 92

###

Molecular target: Tyrosine-protein kinase Fes/Fps (Homo sapiens)
Conditions: at 10 µM
Label met when residual activity is at or above 90%; anything below gets not met.

Solved entries (count: 3):
INSERT INTO results (structure_smiles, experimental_target, classification) VALUES
  ('O=C1Nc2cc(Br)ccc2/C1=C1/Nc2ccccc2/C1=N\O', 'Tyrosine-protein kinase Fes/Fps (Homo sapiens)', 'met'),
  ('Cc1cc(Nc2nc(-c3ccccc3)nc3ccccc23)n[nH]1', 'Tyrosine-protein kinase Fes/Fps (Homo sapiens)', 'not met'),
  ('O=C1NC(=O)/C(=C\c2ccc3nccnc3c2)S1', 'Tyrosine-protein kinase Fes/Fps (Homo sapiens)', 'not met');

Query: Hi team, for "COc1ccc(OC)c2c(=S)c3ccccc3[nH]c12" , is the recorded residual activity at or above 90%?
Response: met

Query: Hi team, for "CC(=O)O/N=C1\C(=C2\C(=O)Nc3cc(Br)ccc32)Nc2ccccc21" , is the recorded residual activity at or above 90%?
Response: met

###

Biological target: SRSF protein kinase 2 (Homo sapiens) (UniProt P78362)
Sequence (P78362 whole entry, looked up): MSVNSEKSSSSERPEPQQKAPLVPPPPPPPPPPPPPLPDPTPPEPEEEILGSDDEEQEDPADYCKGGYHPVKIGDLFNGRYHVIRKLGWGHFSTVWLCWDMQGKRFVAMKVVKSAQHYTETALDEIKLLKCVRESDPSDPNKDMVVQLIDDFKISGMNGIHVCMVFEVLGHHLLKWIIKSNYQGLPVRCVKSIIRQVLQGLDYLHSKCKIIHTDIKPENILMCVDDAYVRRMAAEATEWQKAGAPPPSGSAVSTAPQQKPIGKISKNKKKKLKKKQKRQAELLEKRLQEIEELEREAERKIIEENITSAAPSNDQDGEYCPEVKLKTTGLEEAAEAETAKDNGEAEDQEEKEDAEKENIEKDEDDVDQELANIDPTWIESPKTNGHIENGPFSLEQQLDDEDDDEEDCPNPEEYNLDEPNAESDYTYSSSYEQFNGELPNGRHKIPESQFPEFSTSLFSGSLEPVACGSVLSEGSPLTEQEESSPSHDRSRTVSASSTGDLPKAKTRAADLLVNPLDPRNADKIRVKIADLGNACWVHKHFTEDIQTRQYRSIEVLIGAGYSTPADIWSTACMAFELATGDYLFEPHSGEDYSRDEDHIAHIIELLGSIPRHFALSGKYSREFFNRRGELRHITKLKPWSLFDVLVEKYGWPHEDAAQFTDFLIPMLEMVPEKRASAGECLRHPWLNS
Conditions: at 1 µM
QUANTITY MEASURED: residual activity (%)
Answer with a number only, understood to be in %.

For orientation, consider the following solved cases.
INSERT INTO results (structure_smiles, observed) VALUES
  ('Cn1nc2c3c(cccc31)C(=O)c1ccccc1-2', 100),
  ('COc1ccc(OC)c2c(=S)c3ccccc3[nH]c12', 97);

// moving on: another record for residual activity
Query: Entry "CCN(CC)C(=O)c1ccc(Nc2nc(OCC3CCCCC3)c3nc[nH]c3n2)cc1" : reported residual activity = ?
Response: 74

###

Target: Protein kinase C theta type (Homo sapiens) (UniProt Q04759)
Sequence (Q04759 whole entry, looked up): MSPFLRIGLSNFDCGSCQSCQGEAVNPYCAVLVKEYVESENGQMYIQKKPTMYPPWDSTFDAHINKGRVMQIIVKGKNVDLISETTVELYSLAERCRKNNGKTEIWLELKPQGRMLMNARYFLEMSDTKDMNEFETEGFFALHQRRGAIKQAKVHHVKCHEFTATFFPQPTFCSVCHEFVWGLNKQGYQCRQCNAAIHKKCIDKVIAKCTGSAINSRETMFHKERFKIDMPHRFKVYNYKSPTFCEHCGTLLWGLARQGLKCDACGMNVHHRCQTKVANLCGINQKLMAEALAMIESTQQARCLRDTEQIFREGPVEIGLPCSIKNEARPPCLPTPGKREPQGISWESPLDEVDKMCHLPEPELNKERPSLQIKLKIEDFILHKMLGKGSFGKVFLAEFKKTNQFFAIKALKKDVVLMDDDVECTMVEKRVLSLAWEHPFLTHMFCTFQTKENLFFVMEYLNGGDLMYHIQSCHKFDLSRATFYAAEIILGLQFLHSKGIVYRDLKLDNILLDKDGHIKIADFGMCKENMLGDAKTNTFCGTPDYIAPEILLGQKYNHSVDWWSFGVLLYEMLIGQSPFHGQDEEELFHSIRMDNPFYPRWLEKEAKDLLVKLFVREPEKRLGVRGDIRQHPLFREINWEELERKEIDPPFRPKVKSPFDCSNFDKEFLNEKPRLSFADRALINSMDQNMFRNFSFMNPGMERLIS
Settings: at 1 µM
// reported residual activity per item
Answer with a number only, understood to be in %.

For orientation, consider the following solved cases.
INSERT INTO assay_data (structure_smiles, experimental_target, quantity_measured, units_symbol, observed) VALUES
  ('O=C1Nc2cc(Br)ccc2/C1=C1/Nc2ccccc2/C1=N\O', 'Protein kinase C theta type (Homo sapiens) (UniProt Q04759)', 'residual activity', '%', 87),
  ('Nc1cccc(-c2cc3c(Oc4cccc(O)c4)ncnc3[nH]2)c1', 'Protein kinase C theta type (Homo sapiens) (UniProt Q04759)', 'residual activity', '%', 88),
  ('O=C1c2ccccc2-[n+]2ccc3c([nH]c4ccccc43)c21', 'Protein kinase C theta type (Homo sapiens) (UniProt Q04759)', 'residual activity', '%', 93);

Query: Entry "Cn1cc(/C=C2\C(=O)Nc3ccc(S(N)(=O)=O)cc32)c2ccccc21" : reported residual activity = ?
Response: 84

Query: Entry "Cn1cnc2cc3c(Nc4cccc(Br)c4)ncnc3cc21" : reported residual activity = ?
Response: 99
